tested-target: UniProt:P12527
Sequence (P12527 whole entry): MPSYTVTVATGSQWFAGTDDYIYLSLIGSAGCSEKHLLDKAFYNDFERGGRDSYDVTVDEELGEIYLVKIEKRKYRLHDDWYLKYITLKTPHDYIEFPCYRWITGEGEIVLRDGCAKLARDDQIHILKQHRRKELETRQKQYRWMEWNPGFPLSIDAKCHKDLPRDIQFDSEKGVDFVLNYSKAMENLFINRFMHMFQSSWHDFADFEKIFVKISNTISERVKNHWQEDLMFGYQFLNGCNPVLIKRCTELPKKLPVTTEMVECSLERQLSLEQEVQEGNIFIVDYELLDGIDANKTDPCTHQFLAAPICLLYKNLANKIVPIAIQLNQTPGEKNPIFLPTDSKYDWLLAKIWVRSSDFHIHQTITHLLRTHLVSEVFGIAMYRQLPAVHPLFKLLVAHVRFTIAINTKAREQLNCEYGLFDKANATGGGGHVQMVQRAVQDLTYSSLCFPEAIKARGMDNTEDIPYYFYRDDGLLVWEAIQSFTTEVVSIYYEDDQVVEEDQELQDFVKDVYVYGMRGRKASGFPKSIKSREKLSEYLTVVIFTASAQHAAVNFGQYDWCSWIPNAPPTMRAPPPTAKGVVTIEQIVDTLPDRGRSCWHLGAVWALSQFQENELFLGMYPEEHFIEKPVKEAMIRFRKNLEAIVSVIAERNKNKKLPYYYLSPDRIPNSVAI
assay-remarks: Inhibition of 5-lipoxygenase pathway in rat polymorphonuclear assay, by ability to inhibit formation of LTB4 AT 10 uM
measure: Change (%)

Below are worked cases with known answers.
molecule: Cc1ccc(C(O)Cc2ccc3c(n2)CCCCC3)cc1 (configuration not stated)
display-unit: %
Change: -29

molecule: Cc1ccc(C(=O)C2CCCc3c(C)ccnc32)cc1 (configuration not stated)
display-unit: %
Change: -34

molecule: Cc1ccc([C@H](O)[C@@H]2CCCCc3cccnc32)cc1
display-unit: %
Change: -37

molecule: Cc1cc2c(nc1C(O)c1cccs1)CCCCC2 (configuration not stated)
display-unit: %
Change: 34

molecule: Cc1ccc(C(N)c2nc3c(cc2C)CCCCC3)cc1 (configuration not stated)
display-unit: %
Change: -29

[P] Cc1ccc(C(=O)C2CCCc3c(C)ccnc32)cc1C (configuration not stated)
[Q] Cc1cc2c(nc1C(O)c1cccnc1)CCCCC2 (configuration not stated)
For the two items P and Q , which reports the higher Change value? Answer = label.
Q

[1] Cc1ccc(Cc2nc3c(cc2C)CCCCC3)cc1
[2] Cc1cnc2c(c1)CCCC2Sc1ccccc1 (configuration not stated)
Of 1 and 2 , which one carries the higher reported Change? Record your answer as the label of the chosen record.
2

* * *

tested-target: UniProtKB P12527
assay-remarks: Inhibition of 5-lipoxygenase pathway in rat polymorphonuclear assay, by ability to inhibit formation of LTB4 AT 10 uM
measure: Change (%)

compound: Cc1ccc([C@@H](O)[C@@H]2CCCc3cc(C)cnc32)cc1
display-unit: %
Change: -11

compound: COC(c1ccc(C)cc1)c1nc2c(cc1C)CCCCC2 (stereo not drawn)
display-unit: %
Change: -12

compound: Cc1ccc(C(C)(O)c2nc3c(cc2C)CCCCC3)cc1 (stereo not drawn)
display-unit: %
Change: -13
